Each entry below lists one item and its recorded ECL signal value.
Target: T1, rHuman Erythropoietin R/Fc Chimera, CF (R&D Systems Cat#963-ER) (human, UniProt P19235 25-250)
T1 construct: Bought protein; also called EPO R; EPO R/Fc; Fc part of the bought chimera not given
T1 sequence (looked up): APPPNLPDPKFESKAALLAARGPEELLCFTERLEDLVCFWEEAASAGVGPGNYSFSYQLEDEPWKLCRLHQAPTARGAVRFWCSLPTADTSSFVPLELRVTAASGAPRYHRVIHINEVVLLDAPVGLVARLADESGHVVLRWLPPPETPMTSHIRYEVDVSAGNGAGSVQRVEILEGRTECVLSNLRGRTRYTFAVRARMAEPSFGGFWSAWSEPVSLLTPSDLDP
Experiment: ECL multispot (MSD) assay; antigen spotted on plate, Fab in solution;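 further: purified Fab incubated 1 hour at 20 °C in 1% BSA TBST on antigen-coated wells, detected with TAG antibody, ECL read on Sector Imager 2400, compared to each well's blank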
// note: answer is a bare numeric in ECL signal

{"columns": ["Binder", "ECL signal, ECL signal"],
 "data": [
  ["Fab VH1-46_IGHD6-6*01_IGHJ1*01 S102A/S103P/S104F (APF) & L6_IGKJ1*01 S30T (Fab, V domains shown, Tested as Fab made in E. coli; The heavy chain vector (Plasmid A) adds CH1 with His and Flag tags, the kappa vector (Plasmid C) adds CL kappa; also called APF / S30T) VH: QVQLVQSGAEVKKPGASVKVSCKASGYTFTSYYMHWVRQAPGQGLEWMGIINPSGGSTSYAQKFQGRVTMTRDTSTSTVYMELSSLRSEDTAVYYCAREEYAPFSAEYFQHWGQGTLVTVSS VL: EIVLTQSPATLSLSPGERATLSCRASQSVTSYLAWYQQKPGQAPRLLIYDASNRATGIPARFSGSGSGTDFTLTISSLEPEDFAVYYCQQRSNWPPWTFGQGTKVEIKR", 207],
  ["Fab VH1-46_IGHD6-6*01_IGHJ1*01 S102A/S103P/S104F (APF) & L6_IGKJ1*01 S30R (Fab, V domains shown, Tested as Fab made in E. coli; The heavy chain vector (Plasmid A) adds CH1 with His and Flag tags, the kappa vector (Plasmid C) adds CL kappa; also called APF / S30R) VH: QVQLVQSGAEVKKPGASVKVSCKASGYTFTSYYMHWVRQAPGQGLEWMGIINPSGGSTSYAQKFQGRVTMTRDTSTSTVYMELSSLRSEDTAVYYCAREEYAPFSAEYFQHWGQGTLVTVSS VL: EIVLTQSPATLSLSPGERATLSCRASQSVRSYLAWYQQKPGQAPRLLIYDASNRATGIPARFSGSGSGTDFTLTISSLEPEDFAVYYCQQRSNWPPWTFGQGTKVEIKR", 87]
]}

Next up:
Record request: ECL signal value, item Fab VH1-46_IGHD6-6*01_IGHJ1*01 S102A/S103P/S104F (APF) & L6_IGKJ1*01 S30W (Fab, V domains shown, Tested as Fab made in E. coli; The heavy chain vector (Plasmid A) adds CH1 with His and Flag tags, the kappa vector (Plasmid C) adds CL kappa; also called APF / S30W) VH: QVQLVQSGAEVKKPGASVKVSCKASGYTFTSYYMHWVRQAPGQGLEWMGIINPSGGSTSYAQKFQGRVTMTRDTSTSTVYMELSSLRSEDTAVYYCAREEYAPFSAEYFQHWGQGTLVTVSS VL: EIVLTQSPATLSLSPGERATLSCRASQSVWSYLAWYQQKPGQAPRLLIYDASNRATGIPARFSGSGSGTDFTLTISSLEPEDFAVYYCQQRSNWPPWTFGQGTKVEIKR
30
